From: DBAASP

- Tested on: Bacillus subtilis ATCC 23857
Listed below: MIC values for each entry.
measured-metric: MIC (µM)

[[record]]
molecule = "CC(C)C[C@H](NC(=O)[C@H](C)NC(=O)[C@H](CCCN=C(N)N)NC(=O)[C@@H](NC(=O)[C@H](CCC(N)=O)NC(=O)[C@H](CCCCN)NC(=O)[C@H](CCCCN)NC(=O)[C@H](C)NC(=O)[C@H](CC(C)C)NC(=O)[C@H](CCCCN)NC(=O)[C@H](C)NC(=O)CN)C(C)C)C(=O)NCC(=O)N[C@@H](CCCCN)C(=O)N[C@@H](Cc1ccccc1)C(=O)N[C@@H](Cc1ccccc1)C(=O)N[C@@H](CO)C(=O)N[C@@H](Cc1ccccc1)C(N)=O [GAKLAKKQVRALGKFFSF]"
assayed_target = "Bacillus subtilis ATCC 23857"
measured_metric = "MIC"
value = 8

[[record]]
molecule = "CC[C@H](C)[C@H](NC(=O)[C@H](CCCCN)NC(=O)[C@H](CCCCN)NC(=O)[C@@H](NC(=O)[C@@H](NC(=O)[C@H](CCCCN)NC(=O)[C@H](CCCCN)NC(=O)[C@@H](NC(=O)[C@@H](NC(=O)[C@H](CCCCN)NC(=O)[C@H](CCCCN)NC(=O)[C@@H](NC(=O)[C@@H](NC(=O)[C@H](CCCCN)NC(=O)[C@H](CCCCN)NC(=O)[C@@H](NC(=O)[C@@H](NC(=O)CN)[C@@H](C)CC)[C@@H](C)CC)[C@@H](C)CC)[C@@H](C)CC)[C@@H](C)CC)[C@@H](C)CC)[C@@H](C)CC)[C@@H](C)CC)C(N)=O [GIIKKIIKKIIKKIIKKI]"
assayed_target = "Bacillus subtilis ATCC 23857"
measured_metric = "MIC"
value = 2


====

Listed below: MIC values for each entry.
- Test system: Escherichia coli KCTC 1682
measured-metric: MIC (µM)

[[record]]
compound = "CC(C)C[C@H](NC(=O)[C@H](CC(C)C)NC(=O)[C@H](Cc1c[nH]c2ccccc12)NC(=O)[C@H](CCCCN)NC(=O)[C@H](CC(C)C)NC(=O)[C@H](Cc1c[nH]c2ccccc12)NC(=O)[C@H](CC(C)C)NC(=O)[C@H](CC(C)C)NC(=O)[C@H](Cc1c[nH]c2ccccc12)NC(=O)[C@H](CC(C)C)NC(=O)[C@@H](N)CCCCN)C(N)=O [KLWLLWLKWLL]"
uom = "µM"
relation_symbol = "≥"
value = 32

[[record]]
compound = "CC[C@H](C)[C@H](NC(=O)[C@H](CCCCN)NC(=O)[C@H](CCCCN)NC(=O)[C@H](Cc1ccccc1)NC(=O)[C@H](CC(C)C)NC(=O)[C@H](CCCCN)NC(=O)[C@H](Cc1c[nH]c2ccccc12)NC(=O)[C@@H](N)CCCCN)C(=O)N1CCC[C@H]1C(=O)N[C@@H](CCCCN)C(=O)N[C@@H](Cc1ccccc1)C(=O)N[C@@H](CC(C)C)C(=O)N[C@@H](Cc1cnc[nH]1)C(=O)N[C@@H](CO)C(=O)N[C@@H](C)C(=O)N[C@@H](CCCCN)C(=O)N[C@@H](CCCCN)C(=O)N[C@@H](Cc1ccccc1)C(N)=O [KWKLFKKIPKFLHSAKKF]"
uom = "µM"
relation_symbol = "="
value = 6.25

[[record]]
compound = "CC[C@H](C)[C@H](NC(=O)[C@H](CC(C)C)NC(=O)[C@@H](N)CC(C)C)C(=O)N[C@H](C(=O)N[C@@H](CC(C)C)C(=O)N[C@@H](CCCCN)C(=O)N[C@@H](CCCCN)C(=O)N[C@@H](CCCCN)C(=O)N[C@@H](Cc1c[nH]c2ccccc12)C(=O)N[C@@H](CCCCN)C(=O)N[C@@H](CCCCN)C(=O)N[C@@H](CCC(N)=O)C(=O)N[C@@H](C)C(=O)N[C@@H](CCCCN)C(=O)N[C@@H](C)C(=O)N[C@@H](CCCCN)C(=O)N[C@@H](CO)C(=O)N[C@@H](CCCCN)C(N)=O)[C@@H](C)CC [LLIILKKKWKKQAKAKSK]"
uom = "µM"
relation_symbol = "="
value = 8

[[record]]
compound = "CC[C@H](C)[C@H](NC(=O)[C@H](Cc1c[nH]c2ccccc12)NC(=O)[C@H](CCCN=C(N)N)NC(=O)[C@@H](NC(=O)[C@@H](NC(=O)[C@H](CCCN=C(N)N)NC(=O)[C@H](CCCCN)NC(=O)[C@@H](N)Cc1c[nH]c2ccccc12)[C@@H](C)CC)C(C)C)C(=O)N[C@@H](CCCCN)C(=O)N[C@@H](CCCN=C(N)N)C(=O)N[C@@H](Cc1c[nH]c2ccccc12)C(=O)N[C@@H](CC(C)C)C(=O)N[C@@H](CCCN=C(N)N)C(N)=O [WKRIVRWIKRWLR]"
uom = "µM"
relation_symbol = "="
value = 8

[[record]]
compound = "CC[C@H](C)[C@H](NC(=O)[C@H](CCCCN)NC(=O)[C@H](CCCCN)NC(=O)[C@H](Cc1ccccc1)NC(=O)[C@H](Cc1c[nH]c2ccccc12)NC(=O)[C@@H](N)CCCCN)C(=O)N1CCC[C@H]1C(=O)N[C@@H](CCCCN)C(=O)N[C@@H](Cc1ccccc1)C(=O)N[C@@H](CC(C)C)C(=O)N[C@@H](Cc1cnc[nH]1)C(=O)N[C@@H](CC(C)C)C(=O)N[C@@H](CC(C)C)C(=O)N[C@@H](CCCCN)C(=O)N[C@@H](CCCCN)C(=O)N[C@@H](Cc1ccccc1)C(N)=O [KWFKKIPKFLHLLKKF]"
uom = "µM"
relation_symbol = "="
value = 3.12

[[record]]
compound = "CC(C)C[C@H](NC(=O)[C@H](CC(C)C)NC(=O)[C@H](CCCCN)NC(=O)[C@H](CC(C)C)NC(=O)[C@H](CC(C)C)NC(=O)[C@H](CCCCN)NC(=O)[C@H](CCCCN)NC(=O)[C@H](CC(C)C)NC(=O)[C@H](CC(C)C)NC(=O)[C@H](CCCCN)NC(=O)[C@H](CCCCN)NC(=O)[C@H](Cc1c[nH]c2ccccc12)NC(=O)[C@@H](N)CCCCN)C(=O)N[C@@H](CCCCN)C(=O)N[C@@H](CCCCN)C(=O)O [KWKKLLKKLLKLLKK]"
uom = "µM"
relation_symbol = "="
value = 22.6

